System: HT-29
Test: NCI tumour cell line growth inhibition, 48 h
Active and inactive are the calls of the source. No stated cut-off is given here; in the data, active = GI50 up to about 1.1 µM and inactive = higher.
Just give me one of these, please: active, inactive

So what was the verdict on CNC(=O)C(C)NC(=O)C(Cc1ccccc1)NC(=O)c1ccccc1 (centres undefined) in this test?
inactive

Request: COc1cc2cc(C(=O)N3CC(COS(C)(=O)=O)c4c3cc(N)c3ccccc43)[nH]c2c(OC)c1OC (centres undefined)
active

Try this compound next: Cc1cccc(/C=N/NC(=S)N2CCCCCC2)n1
active

Try this compound next: COC(=O)C(CCCCN)NC(=O)C(CCCCN)NC(=O)C(CCCCN)NC(C)=O.Cc1ccc(C(=O)Nc2ccc(S(=O)(=O)O)c3cc(S(=O)(=O)O)cc(S(=O)(=O)O)c23)cc1NC(=O)c1cccc(NC(=O)Nc2cccc(C(=O)Nc3cc(C(=O)Nc4ccc(S(=O)(=O)O)c5cc(S(=O)(=O)O)cc(S(=O)(=O)O)c45)ccc3C)c2)c1
inactive

---

Test system: HL-60
Assay: NCI tumour cell line growth inhibition, 48 h
Calls of active or inactive are those of the source. Rule as the data show it: active = GI50 up to about 1.1 µM and inactive = higher.
Pick one: yes (1) = active, no (0) = inactive

What did this assay record as the result for COc1ccc(-c2nc(SCC(=O)N/N=C/c3ccc(N(C)C)cc3)[nH]c2-c2ccc(OC)cc2)cc1 ?
no (0)

Try CCOC(=O)c1sc2nc(-c3ccccc3)nn2c1CBr next.
yes (1)

Also Cc1cn([C@@H]2O[C@H](CO)[C@@H](O)[C@@H]2O)c(=O)[nH]c1=O , if possible.
no (0)

Likewise for BrCc1ccc2ccc3ccc(CBr)nc3c2n1 ?
no (0)

c1ccc2c(c1)Nc1c3ccccc3nc3cccc-2c13 , same question.
no (0)

What about this compound? COc1ccccc1C(=O)c1c(NCc2ccccc2)c(=O)c1=O
no (0)

---

Hi there, I'd appreciate the recorded GI50 for every entry that follows.
Tested on: NCI-H226
Assay: NCI tumour cell line growth inhibition, 48 h
Calls of active or inactive are those of the source. Rule as the data show it: active = GI50 up to about 1.1 µM and inactive = higher.

# returns recorded GI50 (system: NCI-H226) for COC(=O)C(CCCCN)NC(=O)C(CCCCN)NC(=O)C(CCCCN)NC(C)=O.Cc1ccc(C(=O)Nc2ccc(S(=O)(=O)O)c3cc(S(=O)(=O)O)cc(S(=O)(=O)O)c23)cc1NC(=O)c1cccc(NC(=O)Nc2cccc(C(=O)Nc3cc(C(=O)Nc4ccc(S(=O)(=O)O)c5cc(S(=O)(=O)O)cc(S(=O)(=O)O)c45)ccc3C)c2)c1
17.7 µM (inactive)

Now the same for O=[As](O)(O)c1ccc(/N=N/c2ccc(O)cc2)cc1
> 100 µM (inactive)

Can you check CN1CCC23c4c5ccc(Oc6nnnn6-c6ccccc6)c4OC2c2[nH]c4ccccc4c2CC3(O)C1C5 (stereo unspecified) next?
10.8 µM (inactive)

# iterate: C=C1OC(c2ccccc2NC)=NC12CCCCC2
> 100 µM (inactive)

Moving on to COC(=O)c1ccc(C=C(C#N)C#N)cc1
24 µM (inactive)

Moving on to CC(CSc1nc2c(c(=N)n1-c1ccccc1)c(=S)n(-c1ccccc1)c(=S)n2-c1ccccc1)CN(C)C (stereo unspecified)
6.38 µM (inactive)

And the next one, CCOC(=O)Nc1ccc(S(=O)(=O)OC)cc1.CCOC(=O)Nc1ccc(S(=O)(=O)OC)cc1.NNC(=O)c1ccncc1 ?
> 50 µM (inactive)

Record: CCOC(=O)C(=CN1CCNC1=S)C(=O)OCC
> 100 µM (inactive)

Quick one: O=[N+]([O-])c1ccc(CSCc2ccc(Cl)cc2)cc1
> 100 µM (inactive)

Cool, now Cn1cc2c(=O)n3ncn(-c4ccc(Br)cc4)c3nc2n1
> 100 µM (inactive)

Try this molecule next: CCn1c(C)nc([N+](=O)[O-])c1Sc1ncc[nH]1
> 100 µM (inactive)

And Cc1ccc(C2CC(c3cccc([N+](=O)[O-])c3)=Nc3ccccc3S2)cc1 (stereo unspecified) ?
> 44.1 µM (inactive)

Here is the next molecule: NCC1OC(OC2C(N)CC(N)C(O)C2OC2OC(CO)C(O)C2O)C(N)C(O)C1O (stereo unspecified)
> 100 µM (inactive)

Same thing, different molecule: Cc1ccc(-c2sc(-c3ccc(C)cc3)c3c2C2CCC3C2)cc1
> 50 µM (inactive)

Check CN1C/C(=C\c2cccs2)C2=NN(c3ccccc3)C(c3cccs3)C2C1 (stereo unspecified) too.
> 100 µM (inactive)

Likewise for COc1ccc2[nH]cc(CCNC(=O)[C@](O)(Cc3cn(C)c4ccccc34)[C@@]3(O)OCC(O)C3O)c2c1 (stereo partly specified) ?
> 100 µM (inactive)

Item: NC(Cc1cc(Br)c(O)c(Br)c1)C(=O)O (stereo unspecified)
> 100 µM (inactive)

Same read-out for Nc1nc2c(c(=O)[nH]1)N=C(COP(=O)(O)OP(=O)(O)O)CN2 ?
> 100 µM (inactive)

Subsequent entry: C[C@H]1S[C@@H](c2ccc(Cl)cc2Cl)N(NC(=O)c2ccncc2)C1=O
41.6 µM (inactive)

Moving on to the next molecule: CCOc1ccc2c(C)cc(=O)oc2c1
> 100 µM (inactive)

Proceed to O=c1[nH]c2cc([N+](=O)[O-])c(Nc3c4ccccc4nc4ccccc34)c([N+](=O)[O-])c2[nH]1
3.13 µM (inactive)

Do the same for CCOP(=O)(OCC)/C(=C/c1ccccc1)CC(C)=O please
> 100 µM (inactive)

Another: CCCCCCCCC/C=C1\CCC(CN2CCOCC2)C1=O (stereo unspecified)
5.61 µM (inactive)

Okay, and Cc1cccc(/N=C/C=C(\Cl)c2ccc3ccccc3c2)c1 ?
34.1 µM (inactive)

Another molecule: O=C(C(=O)n1ncc(Cl)c(Cl)c1=O)n1ncc(Cl)c(Cl)c1=O
> 100 µM (inactive)

Repeat with CN(Cc1cnc2nc(N)nc(N)c2n1)c1ccc(C(=O)NCCS(=O)(=O)O)cc1
> 100 µM (inactive)
